- assay-info: ATG_TA_CIS: Attagene CIS-FACTORIAL HepG2 Assay for human TA Basal Promoter (AID 2282964)
- measurement-context: HepG2 Attagene CIS-factorial TA basal promoter reporter; actives raise or lower the signal
- Protocol: ATG_CIS is a cell-based, multiplexed-readout assay that uses HepG2, a human liver cell line, with measurements taken at 24 hours after chemical dosing in a 24-well plate.ATG_TA_CIS is one of 52 assay component(s) measured or calculated from the ATG_CIS assay. […] This assay endpoint, ATG_TA_CIS, was analyzed with bidirectional fitting relative to DMSO as the negative control and baseline of activity. […]
Activity calls are given as the source filed them. Rule for the calls: active = hit-call score of the fitted dose curve at least 0.9, where 1 is the maximum; inactive = score below 0.9.
Respond only with the outcome that fits, drawn from active, inactive

input: # fetch the recorded call for `NC(N)=O` here
output: inactive

input: # fetch the recorded call for `S=P(N1CC1)(N1CC1)N1CC1` here
output: inactive

input: # fetch the recorded call for `CCCCCCCCN(C)C` here
output: inactive

input: # fetch the recorded call for `OCC(CO)(CO)CO` here
output: inactive

input: # fetch the recorded call for `Cc1ncc([C@@H](CCCCCCc2ccc3c(n2)NCCC3)CC(=O)O)cn1` here
output: inactive

input: # fetch the recorded call for `CCCCOC(=O)c1ccccc1` here
output: inactive

input: # fetch the recorded call for `c1ccc2ncccc2c1` here
output: inactive

input: # fetch the recorded call for `CCCCCCCC/C=C\CCCCCCCC(=O)OC[C@@H](O)[C@H]1OC[C@H](O)[C@H]1O` here
output: inactive

input: # fetch the recorded call for `O=S1(=O)CCCO1` here
output: inactive

input: # fetch the recorded call for `NNC(=O)c1ccncc1` here
output: inactive

input: # fetch the recorded call for `NCC(F)(F)C(F)(F)C(F)(F)C(F)(F)F` here
output: inactive

input: # fetch the recorded call for `Cn1c(=O)c2[nH]cnc2n(C)c1=O` here
output: inactive

input: # fetch the recorded call for `Cc1nccn1-c1ccc(Sc2cccc(C3(C(N)=O)CCOCC3)c2)cc1` here
output: inactive

input: # fetch the recorded call for `CCN(CC)C(=S)SSC(=S)N(CC)CC` here
output: inactive

input: # fetch the recorded call for `O=C(NO)C1(NS(=O)(=O)c2ccc(Oc3ccc(F)cc3)cc2)CCOCC1` here
output: inactive

input: # fetch the recorded call for `CCOc1ccc2[nH]cc(C(=O)NCc3ccccc3)c(=O)c2n1` here
output: inactive

input: # fetch the recorded call for `OCCC(F)(F)C(F)(F)C(F)(F)C(F)(F)F` here
output: inactive

input: # fetch the recorded call for `CCc1ccc(O)c(C(C)(C)C)c1` here
output: inactive

input: # fetch the recorded call for `FC(F)(F)C(F)(F)C(F)(F)C(F)(F)C(F)(F)C(F)(F)I` here
output: inactive

input: # fetch the recorded call for `C[C@@H](Oc1ccc(CNC(=O)c2cccnc2Oc2ccc3c(c2)OCO3)c(F)c1)C(=O)O` here
output: inactive

input: # fetch the recorded call for `FC(F)(F)COC(OCC(F)(F)F)OCC(F)(F)F` here
output: inactive

input: # fetch the recorded call for `OC[C@H]1O[C@@H]2O[C@H]3[C@H](O)[C@@H](O)[C@@H](O[C@H]4[C@H](O)[C@@H](O)[C@@H](O[C@H]5[C@H](O)[C@@H](O)[C@@H](O[C@H]6[C@H](O)[C@@H](O)[C@@H](O[C@H]7[C@H](O)[C@@H](O)[C@@H](O[C@H]1[C@H](O)[C@H]2O)O[C@@H]7CO)O[C@@H]6CO)O[C@@H]5CO)O[C@@H]4CO)O[C@@H]3CO` here
output: inactive

input: # fetch the recorded call for `C[C@]12C=CC(=O)C=C1CC[C@H]1[C@@H]3C[C@@H](O)[C@](O)(C(=O)CO)[C@@]3(C)C[C@H](O)[C@@]12F` here
output: inactive

input: # fetch the recorded call for `OCc1c[nH]c2ccccc12` here
output: inactive

input: # fetch the recorded call for `C[Si](C)(C)C(F)(F)C(F)(F)C(F)(F)F` here
output: inactive

input: # fetch the recorded call for `OC(O)(C(F)C(O)(O)C(F)(F)F)C(F)(F)F` here
output: inactive

input: # fetch the recorded call for `COc1cc(C(C)C)c2c(c1)S(=O)(=O)N(COc1cc(=O)n3cccc(OCCN4CCCCC4)c3n1)C2=O` here
output: inactive

input: # fetch the recorded call for `O=c1[nH]cnc2c1ncn2[C@H]1CC[C@@H](CO)O1` here
output: inactive

input: # fetch the recorded call for `CC(C)c1nnc2ccc(-c3ocnc3-c3cc(F)ccc3F)cn12` here
output: inactive

input: # fetch the recorded call for CCCCC(CC)C(=O)OCCOCCOCCOC(=O)C(CC)CCCC (stereo unspecified) here
output: inactive

input: # fetch the recorded call for `O=C(O)CO` here
output: inactive

input: # fetch the recorded call for `C=CCc1cc(S(=O)(=O)c2ccc(O)c(CC=C)c2)ccc1O` here
output: active

input: # fetch the recorded call for `CCCCCOC(C)=O` here
output: inactive

input: # fetch the recorded call for `CCCCCCCCCC` here
output: inactive

input: # fetch the recorded call for `O=S(=O)(O)CCC(F)(F)C(F)(F)C(F)(F)C(F)(F)C(F)(F)C(F)(F)F` here
output: inactive

input: # fetch the recorded call for `c1ccc2c(c1)-c1cccc3c1c-2cc1ccccc13` here
output: inactive

input: # fetch the recorded call for `NC(=O)N(O)[C@@H]1COc2cc(OCc3ccccc3)ccc21` here
output: inactive

input: # fetch the recorded call for `CNC(C)=O` here
output: inactive

input: # fetch the recorded call for `c1ccc(C(O[C@@H]2CCCN(CCc3ccc4c(c3)OCO4)C2)c2ccccc2)cc1` here
output: active

input: # fetch the recorded call for `CCc1cccc(CC)c1N` here
output: inactive

input: # fetch the recorded call for CC(C)CC(C)O (stereo unspecified) here
output: inactive

input: # fetch the recorded call for `O=C1CN(N=Cc2ccc([N+](=O)[O-])o2)C(=O)N1` here
output: inactive

input: # fetch the recorded call for `OC[C@H]1O[C@@](CO)(O[C@H]2O[C@H](CO)[C@@H](O)[C@H](O)[C@H]2O)[C@@H](O)[C@@H]1O` here
output: inactive

input: # fetch the recorded call for `OC(Cn1cncn1)(Cn1cncn1)c1ccc(F)cc1F` here
output: inactive

input: # fetch the recorded call for `CCCc1ccccc1` here
output: inactive

input: # fetch the recorded call for `CC1(C)C(=O)N(Cl)C(=O)N1Cl` here
output: inactive
